Cited source for all entries: paper PMC10313070

Molecular target: recombinant BACE-1 (Homo sapiens)
Construct: purchased Sigma-Aldrich MAK237
Sequence (P56817 46-501): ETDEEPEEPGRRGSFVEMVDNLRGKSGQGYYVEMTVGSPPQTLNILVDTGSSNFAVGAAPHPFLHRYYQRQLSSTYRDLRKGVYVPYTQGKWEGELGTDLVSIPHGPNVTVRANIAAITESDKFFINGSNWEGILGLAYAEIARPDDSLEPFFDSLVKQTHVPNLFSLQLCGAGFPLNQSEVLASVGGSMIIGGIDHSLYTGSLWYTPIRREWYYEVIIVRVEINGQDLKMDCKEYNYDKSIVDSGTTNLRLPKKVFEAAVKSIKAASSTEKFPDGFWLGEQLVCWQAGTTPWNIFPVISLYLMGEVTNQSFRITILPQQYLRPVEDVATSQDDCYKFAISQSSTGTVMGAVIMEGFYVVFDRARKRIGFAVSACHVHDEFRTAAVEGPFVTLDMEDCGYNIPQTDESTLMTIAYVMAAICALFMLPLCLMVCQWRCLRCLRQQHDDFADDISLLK
Assay: Enzymatic kinetics on recombinant BACE-1 (Lineweaver-Burk)
Type: biochemical
Conditions: 10 μM peptide, substrate 0–32 µM
No end group written: not given here.
readout.name: Ki

Form: sequence = SLAFVDVLN [peptide] ; Ki = 94 nM

====

Test: in vivo
Design: species or system mice
Conditions: male, Swiss, mouse, iv, 4 mg/kg
No end group written: not given here.
readout.name: AUC(0-t)

Form: sequence = SLAFVDVLN [peptide] ; AUC(0-t) = 2600 ng·h/mL

====

Assay: in vivo
Parameters: species or system mice
Settings: male, Swiss, mouse, iv, 4 mg/kg
No end group written: not given here.
readout.name: MRT (h)
// note: answer is a bare numeric in h

Form: sequence = SLAFVDVLN [peptide] ; MRT = 1

====

Assay: in vivo
Design: species or system mice
Conditions: male, Swiss, mouse, iv, 4 mg/kg
No end group written: not given here.
readout.name: C0 (ng/mL)
// note: answer is a bare numeric in ng/mL

Form: sequence = SLAFVDVLN [peptide] ; C0 = 2600
